Target: T1, HLA-A*02:01 (human)
T1 construct: MHC monomers first loaded with a UV-sensitive peptide (not identified) that is cleaved and exchanged for the test peptide; captured on streptavidin-coated plates and detected with anti-β2m; also called peptide-receptive MHC molecules; MHC class I
Assay: UV-ligand exchange, anti-b2m ELISA; peptide exchange yield grade
Here, each record is paired with measured peptide exchange yield data.
value_type: peptide exchange yield

ALPQFFNDV: ≥ 75%
KLLDLTVRI: ≥ 75%
AVDKTQTSV: 50 to 75%
NLYNDLTNV: 50 to 75%
ALYDSTRELL: ≥ 75%
FLNVDVSEV: ≥ 75%
RLLDETVDVTI: ≥ 75%
YLGAVFDL: ≥ 75%
ALADLTGTV: ≥ 75%
YIYDGKDMSSL: 50 to 75%
NLLADVSTV: 50 to 75%
YLFEDISQL: ≥ 75%
ILYDGSNIQL: ≥ 75%
FLNPDGSDCTL: ≥ 75%
KMLDETVLV: 50 to 75%
LLDITNPVL: ≥ 75%
KLISDMGKDVSA: 50 to 75%
QLMEKVQDV: 50 to 75%
FLNLFDHTL: ≥ 75%
YLHGFDLSL: ≥ 75%
AIDQTITEA: 50 to 75%
SLDISLPNL: ≥ 75%
SQTDLSPAL: ≥ 75%
FLLDGTDMFHM: 50 to 75%
KLAPDLTEL: 50 to 75%
ILDEAKDISF: 50 to 75%
SQDASLLKV: 50 to 75%
SLFIDVTRV: ≥ 75%

The reported measurements were obtained from patent US20220111022A1.
